target: T1, his-tagged cTfR1 (Acro Biosystems p/n TFR-C524a) (cynomolgus monkey, UniProt H9EXL1 89-760 (rhesus entry)); experiment: SPR, Biacore X100, His-tagged TfR1 captured by anti-His
T1 construct: Bought reagent of the SPR assay
T1 sequence (chain, as listed by the source): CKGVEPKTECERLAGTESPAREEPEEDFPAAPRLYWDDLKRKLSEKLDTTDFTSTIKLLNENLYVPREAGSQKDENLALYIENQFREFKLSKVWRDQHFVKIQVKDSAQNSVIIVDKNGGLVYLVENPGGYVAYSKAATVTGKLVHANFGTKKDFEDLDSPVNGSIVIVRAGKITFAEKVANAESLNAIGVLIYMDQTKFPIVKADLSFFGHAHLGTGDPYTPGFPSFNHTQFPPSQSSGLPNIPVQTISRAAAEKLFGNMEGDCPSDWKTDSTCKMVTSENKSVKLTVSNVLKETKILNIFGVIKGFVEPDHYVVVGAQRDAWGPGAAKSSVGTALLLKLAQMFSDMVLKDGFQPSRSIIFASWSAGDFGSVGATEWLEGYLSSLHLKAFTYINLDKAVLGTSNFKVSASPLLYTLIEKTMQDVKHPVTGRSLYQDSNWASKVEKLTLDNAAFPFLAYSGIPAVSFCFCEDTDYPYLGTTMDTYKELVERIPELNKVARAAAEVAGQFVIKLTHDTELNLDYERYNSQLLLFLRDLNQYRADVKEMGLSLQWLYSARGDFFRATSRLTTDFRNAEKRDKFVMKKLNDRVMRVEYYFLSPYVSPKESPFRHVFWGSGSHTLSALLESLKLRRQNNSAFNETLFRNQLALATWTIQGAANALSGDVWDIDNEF
Property Name: koff (s⁻¹)
Give just the numeric value; s⁻¹ need not be written.

Sample records with koff:
Binder: Fab0067 (Fab, V domains shown) VH: EVQLVESGGGLVQPGGSLRLSCATSGYTFTSYWVHWVRQAPGKGLEWVAEINPTNGRTNYIEKFKSRITLSVDKSKSTVYLQMNSLRAEDTAVYYCARGTRAYHYWGQGTLVTVSS VL: DIQLTQSPSSLSASVGDRVTITCRASDNLYRNLAWYQQKPGKAPKLLIYDATKLASGVPSRFSGSGSGTDYTLTISSLQPEDFATYYCQHFWGTPLTFGQGTKVEIKR
koff [s⁻¹]: 0.00328
--
Binder: Fab0065 (Fab, V domains shown) VH: EVQLVESGGGLVQPGGSLRLSCATSGYTFTSYWVHWVRQAPGKGLEWVAEINPTNGRSNYIEKFKSRITLSVDKSKSTVYLQMNSLRAEDTAVYYCARGTRAYHYWGQGTLVTVSS VL: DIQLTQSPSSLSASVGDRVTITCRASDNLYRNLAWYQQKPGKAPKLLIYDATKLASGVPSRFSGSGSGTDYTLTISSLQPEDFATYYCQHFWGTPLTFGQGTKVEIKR
koff [s⁻¹]: 0.00259
--
Binder: Fab0060 (Fab, V domains shown) VH: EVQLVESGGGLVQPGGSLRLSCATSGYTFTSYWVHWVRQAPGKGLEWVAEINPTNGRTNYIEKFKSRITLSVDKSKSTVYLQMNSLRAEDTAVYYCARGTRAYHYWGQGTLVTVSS VL: DIQLTQSPSSLSASVGDRVTITCRASDGLYSNLAWYQQKPGKAPKLLIYDATKLASGVPSRFSGSGSGTDYTLTISSLQPEDFATYYCQHFWGTPLTFGQGTKVEIKR
koff [s⁻¹]: 0.00357

Attention now turns to another entry.
Q: Supply measured koff of Fab0066 (Fab, V domains shown) VH: EVQLVESGGGLVQPGGSLRLSCATSGYTFTSYWVHWVRQAPGKGLEWVAEINPTNGRVNYIEKFKSRITLSVDKSKSTVYLQMNSLRAEDTAVYYCARGTRAYHYWGQGTLVTVSS VL: DIQLTQSPSSLSASVGDRVTITCRASDGLYSNLAWYQQKPGKAPKLLIYDAFNLASGVPSRFSGSGSGTDYTLTISSLQPEDFATYYCQHFWGTPLTFGQGTKVEIKR in your reply.
Ans: 0.00509
